target_or_system: Fibroblast growth factor 2 (Homo sapiens)
protocol_description: FGF2 binders on small-molecule microarrays, primary screen, biochemical, small-molecule microarray, 635/667 nm fluorescence (AID 1133)
cond: small-molecule microarray binding, FGF2, fluorescence 635/667; higher = more signal
Reported composite z-score is given for each of the following molecules.
Respond numerically, and do not add a unit to the figure.

Illustrative cases are given below, each with its answer.
COC(=O)[C@@]1(Cc2ccc(OC)cc2)[C@H]2c3cc(C(=O)N4CCCC4)n(Cc4cc(F)c(F)c(F)c4)c3C[C@H]2CN1C(=O)c1ccccc1; -0.149
COc1ccc(-c2nc3c(c4c2C[C@H](C)OC4)CN(CCC(C)C)CC3)cc1; 0.491

What does the data say about its composite z-score? Entry: CCOC(=O)CCN1C(=O)[C@H]2[C@H]3[C@H](O)[C@H](O)CC(=NOC[C@@H](O)COCc4ccco4)[C@H]3CC[C@H]2C1=O 0.229

Then what about the molecule CC(=O)OC[C@H]1O[C@H](CCON=C(C)CCC(=O)OC[C@H]2O[C@H](C#Cc3ccccc3)C=C[C@@H]2Oc2ccc(C)cc2)C=C[C@@H]1OC(C)=O ? 0.592

Then what about the molecule COc1ccc(O[C@H]2C=C[C@@H](c3ccccc3)O[C@@H]2COC(=O)CCC(C)=NOC[C@@H](C)[C@H](OCc2ccccc2)C(C)C)cc1 ? -0.621

Then what about the molecule O=C1[C@H]2[C@H]3[C@H](O)[C@H](O)CC(=NOCc4ccccc4)[C@H]3CC[C@H]2C(=O)N1C[C@@H]1CCCO1 ? 1.12

Then what about the molecule CC(C)=C1C(=O)C(c2ccccc2)=C2CN3C(=O)N(CCc4ccccc4)C(=O)[C@]3(Cc3ccc(F)cc3)[C@H]21 ? -0.412

====

target_or_system: Fibroblast growth factor 2 (Homo sapiens)
protocol_description: FGF2 binders on small-molecule microarrays, primary screen, biochemical, small-molecule microarray, 635/667 nm fluorescence (AID 1133)
cond: small-molecule microarray binding, FGF2, fluorescence 635/667; higher = more signal
Reported composite z-score is given for each of the following compounds.

What does the data say about its composite z-score? Entry: COc1ccccc1CN1C(=O)c2ccccc2[C@@H](C(=O)NCC(F)(F)F)[C@@H]1c1ccc(CO)cc1 1.05

Then what about the compound C#CCCCON=C1C[C@@H](O)[C@@H](O)[C@@H]2[C@@H]3C(=O)N([C@@H](C)c4ccccc4)C(=O)[C@@H]3CC[C@H]12 ? 0.594

Then what about the compound C[C@@H]1C=CCC(=O)OC[C@H](C)C(=O)N[C@@H](C)C(=O)OC1 ? 1.09

Then what about the compound CN1C(=O)[C@@]2(CCC(=O)OC(C)(C)C)N=C(c3ccc(OCCCO)cc3)O[C@H]2c2ccccc21 ? 0.611

====

protocol_description: splicing luciferase reporter signal modulators, primary screen, spliceosome inhibition project, cell-based, HEK293, splice +/- reporter (AID 1101);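 also: HEK293 cells carrying a splicing-competent luciferase reporter gene; test concentration not given here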
cond: luminescence, 24 h, higher = more signal, called active from +8 up or from −8 down
# label = Satisfied if z-score >= 0.3 else Not satisfied

C=C(/C(=C/C[C@@H](OC(=O)c1ccncc1)c1ccc(OCCO)cc1)c1cnc2ccccc2c1)C(C)C; Not satisfied

Quick check, z-score >= 0.3? CC(C)N1CC=CC23O[C@@H]4C=CCCOC(=O)C4[C@H]2C(=O)N(CCCCCCO)[C@@H]3C1=O (stereo partly specified) Satisfied

Then what about the compound CC(C)=CCCC(C)=CCON=C1[C@H]2CCn3c(=O)n(C)c(=O)n3[C@H]2[C@H](O)[C@@H]2O[C@H]12 ? Satisfied

====

protocol_description: binders of probe aFST on microarray, primary screen, stem cell growth factor project, biochemical, small-molecule microarray, fluorescence 635/667 (AID 1086);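 also: score merges 667 nm fluorescence with signal-to-noise of each printed compound spot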
cond: higher = more signal
# label = Met if composite z-score >= 0.6 else Not met

Please review the entries below; each comes with its answer.
C=C(COC)/C(=C/C[C@H](OC(=O)c1ccncc1)c1ccc(CO)o1)c1cc(C(=O)OC)ccc1OC; Not met
CC=CC1=C(CO)[C@H](O)[C@H]2O[C@H]2[C@H]1O; Not met
O=C1[C@H]2[C@H]3[C@H](O)[C@H](O)CC(=NO[C@@H]4O[C@H](CO)[C@@H](O)[C@H](O)[C@H]4O)[C@H]3CC[C@H]2C(=O)N1Cc1ccccc1; Not met
O=C1C2C=CC(C(O)c3ccc([N+](=O)[O-])cc3)N(Nc3ccc([N+](=O)[O-])cc3)C2C(=O)N1c1ccccc1 (configuration not stated); Met

Quick check, composite z-score >= 0.6? O=C1[C@H]2[C@H]3[C@H](O)[C@H](O)CC(=NO[C@@H]4O[C@H](CO)[C@@H](O)[C@H](O)[C@H]4O)[C@@H]3CC[C@H]2C(=O)N1Cc1ccccc1 Met

Then what about the molecule C[C@@H]1CCC2C(=O)N(Cc3ccccc3)C[C@@H](O)CN2[C@H]1c1ccc(Br)cc1 (some centres not stated) ? Not met

Then what about the molecule C=C(/C(=C/C[C@H](OC(=O)c1ccncc1)c1ccc(OCCO)cc1)c1cnc2ccccc2c1)C(C)C ? Not met

====

protocol_description: small-molecule microarray binders of probe aEGFR, primary screen, biochemical, biotinylated probe, 635/667 nm fluorescence (AID 1097);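 also: probe is a biotinylated anti-EGFR antibody binding compounds printed on slides; score combines fluorescence near 667 nm and signal to noise of each spot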
cond: higher = more signal
recorded_endpoint: composite z-score

Illustrative cases are given below, each with its answer.
C=CCOC(=O)[C@H]1[C@@H]2C(=O)O[C@@H](c3ccccc3)[C@@H](c3ccccc3)N2[C@@H](c2ccc(OCCOC(=O)[C@H]3C[C@H]4C(=O)N5CCC[C@H]5C(=O)N4[C@H]3c3cccc(OCCO)c3)cc2)[C@]12C(=O)Nc1ccc(I)cc12; 0.938
COC(=O)[C@@]1(Cc2ccc(F)cc2)[C@@H]2C(=CC(=O)[C@H]2CC(=O)C(=O)N(C)C)CN1C(=O)c1ccccc1; 0.396
CCN1C(=O)[C@H]2[C@H]3[C@H](O)[C@H](O)CC(=NOCc4ccccc4)[C@H]3CC[C@H]2C1=O; -0.0953

What does the data say about its composite z-score? Entry: CC(C)NC(=O)[C@@]1(C)c2ccccc2C(=O)N(Cc2cc(F)cc(C(F)(F)F)c2)[C@H]1c1ccc(CO)cc1 0.034

Then what about the compound O[C@@H](Cc1ccccc1)[C@H]1C2C=CCCC(c3ccccc3)=C2CN1Cc1cccc(Cl)c1 (stereo not given in full) ? -0.0549

Then what about the compound Cc1cc2c(c(=O)o1)[C@H](O)[C@H]1O[C@H]1C2=O ? -0.0007

Then what about the compound CC(C)c1ccc(NN2C(C(O)c3ccc4c(c3)OCO4)C=CC3C(=O)N(c4ccccc4)C(=O)C32)cc1 (stereo not given) ? -0.0845

Then what about the compound CCCC[C@@H](O)C1=C(C)C[C@H]2C(=O)N(Cc3ccccc3)C(=O)[C@H]2[C@H]1CO ? -0.159

====

protocol_description: FRG1 promoter luciferase signal modulators, primary screen, FRG1 inhibition for FSHD, cell-based, C2C12 myotubes, firefly/Renilla luciferase, luminescence (AID 1084)
cond: higher = more signal, called active from +8 up or from −8 down
Reported z-score is given for each of the following compounds.
Respond numerically, and do not add a unit to the figure.

Cc1ccc(C2CC=C(C(=O)O)CN2S(=O)(=O)c2ccc(C)cc2)cc1 (centres undefined); -2.06

What does the data say about its z-score? Entry: CCOC(=O)CCN1C(=O)[C@H]2[C@H]3[C@H](O)[C@H](O)CC(=NOC[C@@H](O)COCc4ccco4)[C@@H]3CC[C@H]2C1=O -0.124

Then what about the compound C=CC[C@@H]1C=C[C@H](ON=C2c3cc(OC)ccc3O[C@H](c3cccc(OC)c3)[C@H]2O)[C@@H](CO)O1 ? -0.577

Then what about the compound CCN1C(=O)[C@H]2[C@H]3[C@H](O)[C@H](O)CC(=NOCC=C(C)CCC=C(C)C)[C@H]3CC[C@H]2C1=O ? -0.454

====

target_or_system: Dihydroorotate dehydrogenase (quinone), mitochondrial (Plasmodium falciparum (isolate 3D7))
protocol_description: PfDHODH enzyme inhibitors, primary screen, biochemical, C-terminal His tag, absorbance 600 nm (AID 1175);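 also: recombinant parasite enzyme with a five histidine tag at its C terminus; test concentration not given here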
cond: DCIP absorbance 600 nm, higher = more signal, called active from +8 up or from −8 down
recorded_endpoint: composite z-score
Respond numerically, and do not add a unit to the figure.

Illustrative cases are given below, each with its answer.
C[C@@H]1CCC2C(=O)N(Cc3ccccc3)C[C@@H](O)CN2[C@H]1c1ccc(Br)cc1 (stereo partly specified); -1.3
C[C@@H](c1ccccc1)N1C(=O)[C@H]2[C@H]3[C@H](O)[C@H](O)CC(=NOC[C@@H](O)COCc4ccco4)[C@@H]3CC[C@H]2C1=O; 0.407
Cc1ccc(S[C@]2(C(=O)O)CC(=O)N(Cc3ccccc3)[C@@H]2c2ccc(CO)cc2I)cc1; -0.975
CO[C@@H]1COC(=O)[C@H](C)NC(=O)[C@@H](C)COC(=O)CCC[C@H]1C; -0.926
O=C1CCCC=C1C(O)CCOCc1ccccc1 (stereo unspecified); -0.0462
CC(C)(C)N1C(=O)[C@H]2[C@H]3[C@H](O)[C@H](O)CC(=NOCc4ccccc4)[C@@H]3CC[C@H]2C1=O; -1.36
COc1ccc(O[C@H]2C=C[C@@H](c3ccccc3)O[C@@H]2COC(=O)CCC(C)=NO[C@@H](C)c2cc(-c3c(C)cc(C)cc3C)no2)cc1; 0.188
O=C1O[C@@H](c2ccccc2)[C@@H](c2ccccc2)N2[C@@H](c3ccc(O)cc3)[C@]3(C(=O)Nc4ccccc43)[C@@H](C(=O)O)[C@H]12; -1.42

Could you now consider this next compound?
What does the data say about its composite z-score? Entry: CCCC[C@@H]1C[C@H]1[C@@H](NS(=O)(=O)c1cccc2cccnc12)c1ccc(-c2ccccc2)cc1 -0.151
